TARGET_OR_TEST_SYSTEM: HEKn (EGFR WT) (Homo sapiens)
Sequence (P00533 25-1210): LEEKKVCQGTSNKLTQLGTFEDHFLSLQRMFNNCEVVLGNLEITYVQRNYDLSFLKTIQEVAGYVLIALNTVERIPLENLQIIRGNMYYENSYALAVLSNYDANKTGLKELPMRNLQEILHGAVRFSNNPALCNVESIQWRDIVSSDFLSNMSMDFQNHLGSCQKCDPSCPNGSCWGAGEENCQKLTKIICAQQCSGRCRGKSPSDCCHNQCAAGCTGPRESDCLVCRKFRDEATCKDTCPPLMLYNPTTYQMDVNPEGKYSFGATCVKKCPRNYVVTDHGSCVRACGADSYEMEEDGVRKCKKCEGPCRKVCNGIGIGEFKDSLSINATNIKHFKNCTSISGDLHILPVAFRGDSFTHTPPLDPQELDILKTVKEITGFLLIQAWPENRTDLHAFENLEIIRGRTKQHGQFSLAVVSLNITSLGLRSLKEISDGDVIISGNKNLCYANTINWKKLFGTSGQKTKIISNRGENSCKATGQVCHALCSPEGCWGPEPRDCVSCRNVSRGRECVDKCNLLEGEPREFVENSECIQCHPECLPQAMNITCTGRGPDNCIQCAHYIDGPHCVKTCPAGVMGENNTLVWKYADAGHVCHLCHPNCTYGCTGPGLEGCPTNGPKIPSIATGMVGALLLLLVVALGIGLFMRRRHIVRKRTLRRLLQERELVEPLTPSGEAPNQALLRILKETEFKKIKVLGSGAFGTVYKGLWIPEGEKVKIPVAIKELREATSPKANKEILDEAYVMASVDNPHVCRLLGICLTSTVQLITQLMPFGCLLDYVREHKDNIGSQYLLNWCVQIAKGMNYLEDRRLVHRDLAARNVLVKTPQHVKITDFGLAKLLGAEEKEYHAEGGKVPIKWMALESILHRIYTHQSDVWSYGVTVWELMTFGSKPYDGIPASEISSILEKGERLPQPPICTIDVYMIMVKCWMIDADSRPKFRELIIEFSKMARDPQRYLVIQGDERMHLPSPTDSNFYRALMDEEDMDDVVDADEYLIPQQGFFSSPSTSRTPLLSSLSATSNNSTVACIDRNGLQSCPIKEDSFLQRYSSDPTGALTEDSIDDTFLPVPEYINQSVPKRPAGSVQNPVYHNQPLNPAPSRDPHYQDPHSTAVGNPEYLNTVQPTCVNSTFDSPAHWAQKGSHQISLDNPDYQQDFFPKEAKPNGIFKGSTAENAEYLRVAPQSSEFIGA
PROTOCOL: EGFR target modulation in HEKn (EGFR-WT) cell line (phospho-EGFR Y1173 ELISA)
Assay type: cell-based
CONDITION_SUMMARY: value outside parentheses
# IC50 values compiled below
Record the value in nM, omitting the unit from your answer.

Prompt: If you can, please state the reported IC50 value of "COc1ccc2nc(NC(=O)c3ccnc(C)c3)n([C@@H]3CCCCN(C(=O)/C=C/CN(C)C)C3)c2c1Cl" .
Response: 93

Prompt: Could you do the same for "CO[C@H]1CCN(C/C=C/C(=O)N2CCCC[C@@H](n3c(NC(=O)c4ccnc(C)c4)nc4cccc(Cl)c43)C2)C1" , please?
Response: 580

Prompt: Could you do the same for "CNC/C=C/C(=O)N1CCCC[C@@H](n2c(NC(=O)c3ccnc(C)c3)nc3cccc(Cl)c32)C1" , please?
Response: 44

Next:
Prompt: If you can, please state the reported IC50 value of COc1cc(C(=O)Nc2nc3cccc(C)c3n2C2CCCCN(C(=O)/C=C/CN(C)C)C2)ccn1 (stereo not shown) .
Response: 380
